The entries below come with measured TGI values attached.
System: SF-539 CNS
Test: NCI tumour cell line growth inhibition, 48 h
measured-property: TGI

# compound, assay-system, observed-measurement
rows = [
    ("CN1C(c2ccccc2)CC(=O)C(N)C1c1ccccc1 (configuration not stated)", "SF-539 CNS", "> 96.5 µM"),
    ("Nc1[nH]c(=O)nc2c1cnn2C1CCCCO1 (configuration not stated)", "SF-539 CNS", "> 100 µM"),
    ("CC1(C)CNCC(C)(OCc2ccccc2)C(=O)NC(C)(C)CNCC(C)(OCc2ccccc2)C(=O)N1 (configuration not stated)", "SF-539 CNS", "> 10 µM"),
    ("COc1ccc(CCC2c3cc(OC)c(OC)cc3CCN2C)cc1OC (configuration not stated)", "SF-539 CNS", "> 100 µM"),
    ("C=C(C)C1Cc2c(c3ccccc3n(C)c2=O)O1 (configuration not stated)", "SF-539 CNS", "> 100 µM"),
    ("O=c1[nH]nc(Cc2ccccc2)n1C1CCCC1", "SF-539 CNS", "> 100 µM"),
    ("N#CCN1CCn2c1nsc2=S", "SF-539 CNS", "> 100 µM"),
]

* * *

System: EKVX NSCLC
Assay: NCI tumour cell line growth inhibition, 48 h
Here, each record is paired with measured TGI data.

# compound, assay-system, TGI
data = [
    ("Nc1ccc2c(c1)nc1n2C(c2c(F)cccc2F)SC1 (stereo not drawn)", "EKVX NSCLC", "> 100 µM"),
    ("O=[N+]([O-])c1ccc(-c2nc3ccc(Cl)cc3[nH]2)cc1", "EKVX NSCLC", "> 100 µM"),
    ("O=C(c1ccccc1)N(C(=O)c1ccccc1)c1nc(SCc2ccccc2)ns1", "EKVX NSCLC", "68.7 µM"),
    ("NC(=O)c1csc(C2OC(COP(=O)(O)CP(=O)(O)OCC3OC(n4cnc5c(N)ncnc54)C(O)C3O)C(O)C2O)n1 (stereo not drawn)", "EKVX NSCLC", "> 100 µM"),
    ("Oc1cccc2ccc(N/N=C/c3cc(CN4CCOCC4)c(O)c4ncccc34)nc12", "EKVX NSCLC", "11.2 µM"),
    ("N#CC(C#N)c1ccc(C(=O)N2CCC[C@H]2CO)cc1", "EKVX NSCLC", "> 100 µM"),
    ("O=C(O)/C=C/c1nc2ccccc2c(=O)o1", "EKVX NSCLC", "> 100 µM"),
    ("CCOP1(=O)CC(C)=C(Cl)C(O)C1 (stereo not drawn)", "EKVX NSCLC", "> 100 µM"),
    ("N#CC(c1ccccn1)c1nc2ccccc2[nH]1 (stereo not drawn)", "EKVX NSCLC", "> 100 µM"),
    ("CN1C(c2ccccc2)CC(=O)C(N)C1c1ccccc1 (stereo not drawn)", "EKVX NSCLC", "> 80.4 µM"),
    ("CCCCCCNC(=O)Oc1ccc(/C(=C(\\C)c2ccc(Cl)cc2)c2ccc(OCCN3CCCCC3)cc2)cc1", "EKVX NSCLC", "14.4 µM"),
    ("Cc1nc2ccc(C(F)(F)F)cc2nc1NCc1ccc(Cl)c(Cl)c1", "EKVX NSCLC", "27.4 µM"),
    ("CCN1CCC(O)(/C=C/c2ccccc2C)C(C(=O)/C=C/c2ccccc2C)C1 (stereo not drawn)", "EKVX NSCLC", "16.8 µM"),
    ("COC(=O)c1c(C)n([O-])c2cc(Cl)c(Cl)cc2[n+]1=O", "EKVX NSCLC", "67.7 µM"),
    ("O=C1CSC2(CC(/C=C/c3cccc([N+](=O)[O-])c3)=NN2c2cccc(S(=O)(=O)O)c2)N1c1nc2ccccc2s1 (stereo not drawn)", "EKVX NSCLC", "> 100 µM"),
    ("Cc1ccc(NC(=O)c2cc(S(=O)(=O)Nc3n[nH]c(=O)[nH]3)c(SSc3cc(Cl)c(C(=O)Nc4ccc(C)cc4)cc3S(=O)(=O)Nc3n[nH]c(=O)[nH]3)cc2Cl)cc1", "EKVX NSCLC", "> 100 µM"),
    ("Fc1ccc(N2C(=S)SC(=Nc3ccccc3)C2=Nc2ccccc2)cc1", "EKVX NSCLC", "> 100 µM"),
    ("O[C@@]12Cc3c([nH]c4ccccc34)[C@@H]3Oc4cccc5c4[C@@]31CCN(CC1CC1)[C@@H]2C5", "EKVX NSCLC", "47.6 µM"),
    ("O=c1[nH]nc(Cc2ccccc2)n1C1CCCC1", "EKVX NSCLC", "> 100 µM"),
    ("CCC(=O)C(CCN1CCC2(CCCc3ccccc32)CC1)(c1ccccc1)c1ccccc1", "EKVX NSCLC", "17.6 µM"),
    ("CC(N)Cc1ccc(Cl)c(Cl)c1 (stereo not drawn)", "EKVX NSCLC", "> 100 µM"),
    ("CC1(c2ccccc2Cl)C(C#N)C(=O)NC(=O)C1C#N (stereo not drawn)", "EKVX NSCLC", "> 100 µM"),
    ("Cc1cc(N(CCCNc2ccnc3cc(Cl)ccc23)Cc2ccco2)nc(N2CCN(C)CC2)n1", "EKVX NSCLC", "22 µM"),
    ("CN(C)C(=NCc1ccccc1)NC#N", "EKVX NSCLC", "> 100 µM"),
    ("C=CNC(=O)NC(=O)CSc1nnc(-c2ccccc2NC(=O)C(F)(F)F)c(=O)[nH]1", "EKVX NSCLC", "> 100 µM"),
    ("NC1CC(=O)c2c1sc(Cl)c2Cl (stereo not drawn)", "EKVX NSCLC", "> 100 µM"),
    ("CC(C)C(C(=O)O)N1C(=O)c2ccccc2C1=O (stereo not drawn)", "EKVX NSCLC", "> 100 µM"),
    ("CSc1nc2sc3c(c2c(=O)n1-c1ccc(C(C)C)cc1)CCC(=O)C3", "EKVX NSCLC", "> 100 µM"),
    ("CCOC(=O)/C(C#N)=C(O)/C(=C\\c1ccc(Br)cc1)NC(=O)c1ccccc1", "EKVX NSCLC", "> 100 µM"),
    ("c1ccc2cc(-c3n(Cc4ccc5ccccc5n4)c4ccccc4[n+]3Cc3ccc4ccccc4n3)ccc2c1", "EKVX NSCLC", "2.08 µM"),
    ("NC(=O)C(=O)C1CCC2=C(Sc3ccccc3N2)C1=O (stereo not drawn)", "EKVX NSCLC", "> 100 µM"),
    ("COC(=O)c1cncc(/C=C/c2c(C)cc(O)cc2C)c1", "EKVX NSCLC", "> 25 µM"),
    ("Cc1ccc(/C(C#N)=C/c2cccc([N+](=O)[O-])c2)cc1", "EKVX NSCLC", "> 100 µM"),
]
